Entries and their binding signal
measurement target: T1, RBFOX1 RRM (Homo sapiens, UniProt Q9NWB1 109-208)
T1 sequence: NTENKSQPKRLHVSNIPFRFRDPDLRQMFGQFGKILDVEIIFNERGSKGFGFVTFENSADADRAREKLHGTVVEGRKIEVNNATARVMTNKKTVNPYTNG
measurement description: EMSA; HiTS-Eq, 1 nM pool, 10 min; buffer printed only for the single-RNA assays: 10 mM Tris pH 7.5, 150 mM NaCl, 3.4 mM EDTA, 0.001% NP-40, 30 C
assay conditions: tags: His6 N-terminal (pET28a); label: 5' 32P
In all, about 16,000 sequences were measured (“ka relative to ugcaugu”: median about 0.0091, highest 2% from about 0.032 on). The sample holds the highest values, similar sequences and a random draw of the others, so the mix is not that of the screen.

Observe how each entry below is paired with its result.
binder | property | value observed
CGCUCGG (DNA:RNA) RNA: GGGAGACCGGAAUUCAGAUUGUCCCGCUCGGUUAAAUCCCGUCGUAGCCACCA DNA 1: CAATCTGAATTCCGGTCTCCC DNA 2: TGGTGGCTACGACGGGATT | binding signal | 0.0166 KA relative to UGCAUGU
UCCUCGA (DNA:RNA) RNA: GGGAGACCGGAAUUCAGAUUGUCCUCCUCGAUUAAAUCCCGUCGUAGCCACCA DNA 1: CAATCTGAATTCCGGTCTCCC DNA 2: TGGTGGCTACGACGGGATT | binding signal | 0.00976 KA relative to UGCAUGU

# context switch: different binder, same binding signal
Noted for GUCUCGA (DNA:RNA) RNA: GGGAGACCGGAAUUCAGAUUGUCCGUCUCGAUUAAAUCCCGUCGUAGCCACCA DNA 1: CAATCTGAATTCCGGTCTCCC DNA 2: TGGTGGCTACGACGGGATT : its binding signal reads 0.0166 KA relative to UGCAUGU
